Target: human PD-L1 expressed on cell surface (human, UniProt Q9NZQ7 19-290)
Sequence (Q9NZQ7 19-290 limits assumed): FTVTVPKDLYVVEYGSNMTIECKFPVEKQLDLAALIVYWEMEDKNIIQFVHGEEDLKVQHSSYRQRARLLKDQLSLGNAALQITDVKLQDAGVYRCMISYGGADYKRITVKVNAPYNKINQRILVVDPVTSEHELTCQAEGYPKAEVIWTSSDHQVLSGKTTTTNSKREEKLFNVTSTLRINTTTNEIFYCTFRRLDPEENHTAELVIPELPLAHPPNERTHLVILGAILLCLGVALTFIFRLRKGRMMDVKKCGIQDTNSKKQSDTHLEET
Test: cell-based or functional assay
Measurement Label: Internalization (%), FACS, 0.5 µg/ml, 2 h
The figure you give is taken to be in %; do not add the unit.

>  <Binder>
69D10 (antibody, human IgG1, V domains shown) VH: QEQLEESGGGLVQPEGSLTLTCTASGFSFSGDWYMSWVRQAPGKGLEWIASIYSGSLNTYYATWAKGRFTVSLTSSTTVTLQMTSLTAADTATYFCARRNKNADYGHFDLWGPGTLVTVSS VL: YDMTQTPASVEVAVGGTVTIKCQASQSIGNALAWYQQKPGQPPKLLIYATSTLASGVPSRFKGSGSGTEFTLTISDLECGDAATYYCQQGWTVSSLDNAFGGGTEVVAK

>  <Value Unit>
%

>  <Value Measured>
16.2

$$$$
>  <Binder>
73C8 (antibody, human IgG1, V domains shown) VH: QEQLEESGGGLVQPEGSLTLTCTVSGFSFSGDYYMSWVRQAPGKGLEWVASIYTGSLNTYYATWAKGRFTISLTSSTTVTLQMTSLTAADTATYFCARRNKNADYGHFDLWGPGTLVTVSS VL: YDMTQTPASVEVAVGGTVTIKCQASQSINDRLAWYQQKPGQPPKLLIYAASTLASGVPSRFRGSGSGTDFTLTISDLECADAATYYCQQGWTVSSLDNAFGGGTEVVAM

>  <Value Unit>
%

>  <Value Measured>
17.8

$$$$
>  <Binder>
57F11 (antibody, human IgG1, V domains shown) VH: QEHLEESGGGLVQPEGALTLTCTASGFSFSGDYYMSWVRQAPGKGLEWIASIYTGSLNTYYATWAKGRFTISIASSTTVTLQVTSLTAADTATYFCARRTKNGDYGYFDLWGPGTLVTVSS VL: YDMTQTPASVEVAVGGTVTIKCQASQSINDRLAWYQQKPGQPPKLLIYAASTLASGVPSRFKGSGSGTEFTLTISDLECADAATYYCQQGWTVSSLENAFGGGTEVVAK

>  <Value Unit>
%

>  <Value Measured>
19.7

$$$$

Field: next binder
Task: Item under review: 56E5 (antibody, human IgG1, V domains shown) VH: QEQLEESGGGLVQPEGSLTLTCTASGFSFSGDYYMSWVRQAPGKGLEWIASIYTGSLNTYYATWAKGRFTISLTSSTTVTLQMTSLTAADTATYFCARRHKNADYGHFDLWGPGTLVTVSS VL: YDMTQTPGSVEVAVGGTVTIKCQASQSINDRLAWYQQTPGQPPKLLIYGASTLASGVPSRFKGSGSGTEFTLTISDLECADAATYYCQQGWTVSSLDNAFGGGTEVVAK . Reported Internalization (%), FACS, 0.5 µg/ml, 2 h?
Output: 20.7

Sourced from patent US20250171542A1
